Property: solubility at 24 h; scope: individual compounds
# assay_text: physchem
# measurement_parameters: pH 6.8, aqueous buffer, kinetic from dmso stock, Solubility (pH 6.8)
outcome_measure: solubility at 24 h (µg/mL)

1. Cc1ccc(OCc2ccc3c(c2)CCN(C2COC2)C3)c(-c2cccc(N3CC[C@@]4(C(=O)O)C[C@H]4C3)n2)c1; 39
2. Cc1cc(COc2c(C)cccc2-c2csc(N3CC[C@@]4(C(=O)O)C[C@H]4C3)n2)cc2c1CN(C1CCC(F)(F)CC1)CC2; 1
3. Cc1c(COc2ccccc2-c2cccc(N3CC[C@@]4(C(=O)O)C[C@H]4C3)n2)ccc2c1CCN([C@H]1CCCOC1)C2; 46
4. CO[C@@H]1CN(c2cccc(-c3cccc(C)c3OCc3ccc4c(c3C)CCN(C3CCOC3)CC4)n2)CC[C@@H]1C(=O)O (stereo partly shown); 68.4
5. COC[C@H]1N(c2cccc(-c3cccc(C)c3OCc3ccc4c(c3)CN(C3CCOCC3)CC4)n2)C[C@@H]2C[C@@]21C(=O)O; 136
6. CCO[C@@H]1CN(c2nc(-c3cc(C)ccc3OCc3cc(C)c4c(c3F)CCN(C3CCOCC3)C4)cs2)CC[C@@H]1C(=O)O; 3
7. CO[C@@H]1CN(c2cccc(-c3cccc(C)c3OCc3ccc4c(c3C)CCN([C@H]3CCOC3)CC4)n2)CC[C@@H]1C(=O)O; 91.1
8. O=C(O)[C@@]12CCN(c3nc(-c4ccccc4OCc4ccc5c(c4)CCN(C4CCOCC4)C5)cs3)C[C@@H]1C2; 22
9. CO[C@H]1CN(c2nc(-c3cccc(Cl)c3OCc3ccc4c(c3)[C@@H](C)CN(C3CCOCC3)CC4)cs2)CC[C@H]1C(=O)O; 55.4
10. Cc1cc(COc2c(C)cccc2-c2csc(N3CC[C@@]4(C(=O)O)C[C@H]4C3)n2)cc2c1CN(C1CCOC1)CC2 (stereo partly shown); 31
11. COc1cc(COc2ccc(C)cc2-c2cccc(N3CC[C@H](C(=O)O)[C@H](OC)C3)n2)cc2c1CN(C1CCOCC1)CC2; 92
12. CCO[C@@H]1CN(c2cccc(-c3cc(C)ccc3OCc3cc4c(c(OC)c3)CN(C3CCOCC3)CC4)n2)CC[C@@H]1C(=O)O; 121
13. CO[C@@H]1CN(c2cccc(-c3cccc(C)c3OCc3ccc4c(c3)CCN(C3CCOCC3)C4)n2)CC[C@@H]1C(=O)O; 71
14. CO[C@H]1CN(c2nc(-c3cc(C)ccc3OCc3ccc4c(c3C)CCN(C3CCOCC3)C4)cs2)CC[C@H]1C(=O)O; 5.1
15. Cc1ccc(OCc2cc(C)c3c(c2C)CCN(CC2COCCO2)C3)c(-c2csc(N3CC[C@@]4(C(=O)O)C[C@H]4C3)n2)c1 (stereo partly shown); 0.77
16. Cc1cc(COc2c(C)cccc2-c2csc(N3C[C@H]4C[C@@]4(C(=O)O)[C@@H]3C)n2)cc2c1CN(C1CCOCC1)CC2; 63
17. CCO[C@@H]1CN(c2nc(-c3cccc(C)c3OCc3cc(OC)c4c(c3F)CCN(C3CCOCC3)C4)cs2)CC[C@@H]1C(=O)O; 64
18. CCO[C@H]1CN(c2cccc(-c3cccc(C)c3OCc3cc4c(c(OC)c3)CN(C3CCOCC3)CC4)n2)CC[C@H]1C(=O)O; 117
19. Cc1c(COc2ccccc2-c2cccc(N3CC[C@@]4(C(=O)O)C[C@H]4C3)n2)ccc2c1CCN(C1CCOCC1)C2; 60
20. CO[C@@H]1CN(c2cccc(-c3cccc(C)c3OCc3ccc4c(c3C)CCN(C3COC3)CC4)n2)CC[C@@H]1C(=O)O; 107
21. Cc1ccc(OCc2cc(C)c3c(c2)CCN(C2COC2)C3)c(-c2cccc(N3C[C@@H]4C[C@]4(C(=O)O)C3)n2)c1; 59
22. Cc1cc(C)c(OCc2ccc3c(c2)CCN(C2CCOCC2)C3)c(-c2csc(N3C[C@@H]4C[C@]4(C(=O)O)C3)n2)c1; 54
23. CO[C@H]1CN(c2cccc(-c3cccc(C)c3OCc3cc(C)c4c(c3)CCN(C3CCOCC3)C4)n2)CC[C@@H]1C(=O)O; 80.1
24. CCc1cc(COc2ccc(C)cc2-c2cccc(N3CC[C@H](C(=O)O)[C@H](OC)C3)n2)cc2c1CN(C1CCOCC1)CC2; 91
25. COC[C@H]1N(c2cccc(-c3cccc(C(F)(F)F)c3OCc3cc(C)c4c(c3)CCN(C3COC3)C4)n2)C[C@@H]2C[C@@]21C(=O)O; 138
